system: Lolium multiflorum; test: Post-emergence herbicidal effect; assay type: in vivo; details: 80 g/ha, visual assessment after about 3 weeks

>  <MOLECULE>
CC#Cc1cc(C)c(C2=C(O)C3(CCC(COC)CC3)NC2=O)c(CC)c1 (centres unmarked)

>  <Post-emergence effectiveness LOLMU>
100%

$$$$
>  <MOLECULE>
CC#Cc1cc(C)c(C2=C(O)C3(CCC(COC)C3)NC2=O)c(CC)c1 (centres unmarked) [Example I-10]

>  <Post-emergence effectiveness LOLMU>
100%

$$$$
>  <MOLECULE>
COCC1CCC2(C1)NC(=O)C(c1c(C)cc(C#CC3CC3)cc1C)=C2O (centres unmarked) [Example I-13]

>  <Post-emergence effectiveness LOLMU>
90%

$$$$
>  <MOLECULE>
COCC1CCC2(C1)NC(=O)C(c1c(C)cc(C#CC3CC3)cc1C)=C2O (mixture of isomers) [Example I-14]

>  <Post-emergence effectiveness LOLMU>
90%

$$$$
>  <MOLECULE>
CCc1cc(C#CC2CC2)cc(C)c1C1=C(O)C2(CCC(COC)C2)NC1=O (centres unmarked) [Example I-12]

>  <Post-emergence effectiveness LOLMU>
90%

$$$$
>  <MOLECULE>
CCc1cc(C#CC2CC2)cc(C)c1C1=C(O)C2(CCC(COC)C2)NC1=O (centres unmarked) [Example I-11]

>  <Post-emergence effectiveness LOLMU>
100%

$$$$
>  <MOLECULE>
CC#Cc1cc(CC)c(C2=C(O)C3(CCC(CCOC)CC3)NC2=O)c(CC)c1 (centres unmarked)

>  <Post-emergence effectiveness LOLMU>
90%

$$$$
>  <MOLECULE>
CC#Cc1cc(C)c(C2=C(OC(=O)C(C)C)C3(CCC(COC)C3)NC2=O)c(CC)c1 (centres unmarked) [Example Ia-7]

>  <Post-emergence effectiveness LOLMU>
100%

$$$$
